assay: Plasma protein binding in mouse; type: ADME, cell-free; conditions: read-out: PPB (converted)

{"compound.string": "CN(C)C(=O)N1CCC(c2nc(-c3cc4ccccc4[nH]3)c3c(N)nccn23)CC1", "fraction unbound": 0.119}
{"compound.string": "CC(=O)NC[C@H]1CC[C@H](c2nc(-c3cc4ccccc4[nH]3)c3c(N)nccn32)CC1", "fraction unbound": 0.097}

* * *

assay: Metabolic stability in mouse liver microsome assessed as extraction ratio; type: ADME; details: liver microsomes

{"compound.string": "CN(C)C(=O)N1CCC(c2nc(-c3cc4ccccc4[nH]3)c3c(N)nccn23)CC1", "hepatic extraction ratio": 0.67}
{"compound.string": "Nc1nccn2c1c(-c1cc3ccccc3[nH]1)nc2[C@H]1CC[C@H](CO)CC1", "hepatic extraction ratio": 0.67}
{"compound.string": "Nc1nccn2c1c(-c1cc3ccccc3[nH]1)nc2[C@H]1C[C@@H](CO)C1", "hepatic extraction ratio": 0.79}
{"compound.string": "Nc1nccn2c1c(-c1cc3ccccc3[nH]1)nc2[C@H]1C[C@@H](O)C1", "hepatic extraction ratio": 0.6}
{"compound.string": "Nc1nccn2c1c(-c1cc3ccccc3[nH]1)nc2[C@H]1CC[C@H](CNC(=O)c2ccoc2)CC1", "hepatic extraction ratio": 0.76}
{"compound.string": "CC(=O)N1CCN([C@H]2C[C@@H](c3nc(-c4cc5ccccc5[nH]4)c4c(N)nccn43)C2)CC1", "hepatic extraction ratio": 0.59}
{"compound.string": "CC(=O)N1CCC(c2nc(-c3cc4ccccc4[nH]3)c3c(N)nccn23)CC1", "hepatic extraction ratio": 0.43}
{"compound.string": "Nc1nccn2c(C3CCNCC3)nc(-c3cc4ccccc4[nH]3)c12", "hepatic extraction ratio": 0.64}
{"compound.string": "Nc1nccn2c(C3CCC3)nc(-c3cc4ccccc4[nH]3)c12", "hepatic extraction ratio": 0.94}
{"compound.string": "Nc1nccn2c1c(-c1cc3ccccc3[nH]1)nc2[C@H]1CC[C@H](CNC=O)CC1", "hepatic extraction ratio": 0.51}
{"compound.string": "NC[C@H]1CC[C@H](c2nc(-c3cc4ccccc4[nH]3)c3c(N)nccn32)CC1", "hepatic extraction ratio": 0.28}
{"compound.string": "CN1CCN([C@H]2C[C@@H](c3nc(-c4cc5ccccc5[nH]4)c4c(N)nccn43)C2)CC1", "hepatic extraction ratio": 0.2}
{"compound.string": "Nc1nccn2c1c(-c1cc3ccccc3[nH]1)nc2[C@H]1CC[C@H](CNC(=O)C2CCC2)CC1", "hepatic extraction ratio": 0.79}

All values here come from ChEMBL document CHEMBL1759853.
